- Tested on: Clostridium perfringens ISS30543
- Format: cell-based
- study_conditions: Clostridium perfringens ISS30543 (code 290); anaerobe, 48 h; 0.01% BSA; inocula about 10^5 (1-4), about 5×10^5 cfu/ml (5, 6)
recorded_endpoint: MIC of the compounds (µg/mL)
Value expressed in µg/mL; do not type the unit.

Solved cases (3 shown):
| molecule | value_unit | test_value |
| --- | --- | --- |
| CNC(=O)C[C@@H]1NC(=O)c2csc(n2)-c2ccc(-c3nc(C4=N[C@H](C(=O)N5CCC[C@H]5C(N)=O)CO4)cs3)nc2-c2csc(n2)-c2csc(n2)C(C(O)c2ccccc2)NC(=O)CNC(=O)c2nc(sc2CN(C)CCN(C)C)[C@H](C(C)C)NC(=O)c2nc1sc2C (stereo partly drawn) | µg/mL | 4 |
| CCN(CC)CCNC(=O)[C@@H]1CCCN1C(=O)[C@@H]1COC(c2csc(-c3ccc4c(n3)-c3csc(n3)-c3csc(n3)C(C(O)c3ccccc3)NC(=O)CNC(=O)c3nc(sc3CO)[C@H](C(C)C)NC(=O)c3nc(sc3C)[C@H](CC(=O)NC)NC(=O)c3csc-4n3)n2)=N1 (stereo partly drawn) | µg/mL | 0.06 |
| CCSCc1sc2nc1C(=O)NCC(=O)NC(C(O)c1ccccc1)c1nc(cs1)-c1nc(cs1)-c1nc(-c3nc(C4=N[C@H](C(=O)N5CCC[C@H]5C(N)=O)CO4)cs3)ccc1-c1nc(cs1)C(=O)N[C@@H](CC(=O)NC)c1nc(c(C)s1)C(=O)N[C@H]2C(C)C (stereo partly drawn) | µg/mL | 0.016 |

Please fill in: MIC of the compounds reported for CNC(=O)CC1NC(=O)c2csc(n2)-c2ccc(-c3nc(C4=NC(C(=O)N5CCCC5C(N)=O)CO4)cs3)nc2-c2csc(n2)-c2csc(n2)C(C(O)c2ccccc2)NC(=O)CNC(=O)c2nc(sc2CN(C)C)C(C(C)C)NC(=O)c2nc1sc2C (stereo not drawn) = 0.06

Please fill in: MIC of the compounds reported for CCN(CC)CCNC(=O)[C@@H]1CCCN1C(=O)[C@@H]1COC(c2csc(-c3ccc4c(n3)-c3csc(n3)-c3csc(n3)C(C(O)c3ccccc3)NC(=O)CNC(=O)c3nc(sc3CN(C)C)[C@H](C(C)C)NC(=O)c3nc(sc3C)[C@H](CC(=O)NC)NC(=O)c3csc-4n3)n2)=N1 (stereo partly drawn) = 0.06

Please fill in: MIC of the compounds reported for CCN(CC)Cc1sc2nc1C(=O)NCC(=O)NC(C(O)c1ccccc1)c1nc(cs1)-c1nc(cs1)-c1nc(-c3nc(C4=NC(C(=O)N5CCCC5C(N)=O)CO4)cs3)ccc1-c1nc(cs1)C(=O)NC(CC(=O)NC)c1nc(c(C)s1)C(=O)NC2C(C)C (stereo not drawn) = 0.13

All figures here come from patent US6008225A.
